Value source: patent US10508120B2

- Tested System: Tyk2/JAK2 (heterodimeric complex) (Homo sapiens (Human), UniProt P29597)
- Sequence (P29597 whole entry, other chains not shown): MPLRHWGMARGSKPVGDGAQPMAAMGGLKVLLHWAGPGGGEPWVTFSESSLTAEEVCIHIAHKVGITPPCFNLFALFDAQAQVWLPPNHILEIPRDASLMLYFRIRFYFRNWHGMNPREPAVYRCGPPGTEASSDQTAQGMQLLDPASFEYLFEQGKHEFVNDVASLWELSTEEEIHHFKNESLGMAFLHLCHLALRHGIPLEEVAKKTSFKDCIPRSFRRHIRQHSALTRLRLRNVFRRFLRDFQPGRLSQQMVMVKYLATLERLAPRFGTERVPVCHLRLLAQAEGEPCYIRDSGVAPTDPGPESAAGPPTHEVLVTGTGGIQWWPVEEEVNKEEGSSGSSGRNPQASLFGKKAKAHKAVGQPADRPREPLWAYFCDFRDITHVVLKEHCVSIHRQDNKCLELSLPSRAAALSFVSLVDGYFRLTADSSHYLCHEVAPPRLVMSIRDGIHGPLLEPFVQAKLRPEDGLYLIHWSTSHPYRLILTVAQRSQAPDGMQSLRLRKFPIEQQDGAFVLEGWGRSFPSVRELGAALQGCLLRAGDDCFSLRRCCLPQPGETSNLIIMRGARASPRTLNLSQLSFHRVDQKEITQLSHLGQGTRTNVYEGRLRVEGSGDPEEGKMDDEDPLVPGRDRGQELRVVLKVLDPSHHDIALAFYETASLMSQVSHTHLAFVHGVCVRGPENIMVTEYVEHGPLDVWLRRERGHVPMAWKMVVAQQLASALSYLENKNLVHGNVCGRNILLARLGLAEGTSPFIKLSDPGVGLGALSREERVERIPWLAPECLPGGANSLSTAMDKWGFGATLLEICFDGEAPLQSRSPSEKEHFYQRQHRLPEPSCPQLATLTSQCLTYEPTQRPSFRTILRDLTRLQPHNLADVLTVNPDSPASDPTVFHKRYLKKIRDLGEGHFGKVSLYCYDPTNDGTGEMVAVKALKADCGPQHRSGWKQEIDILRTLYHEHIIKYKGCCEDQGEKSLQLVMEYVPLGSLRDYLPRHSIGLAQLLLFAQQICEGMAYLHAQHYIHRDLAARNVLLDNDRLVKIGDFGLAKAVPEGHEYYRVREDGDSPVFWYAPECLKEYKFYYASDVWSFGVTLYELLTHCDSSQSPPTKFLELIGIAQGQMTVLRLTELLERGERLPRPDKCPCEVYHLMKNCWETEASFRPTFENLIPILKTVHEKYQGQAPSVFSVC
- Assay Comment: IL-12 Induced pSTAT4 in Human PBMC
- Stated Conditions: 1.7 ng/mL IL-12
Measured IC50 by item

{"columns": ["Record Smiles", "IC50"],
 "data": [
  ["CNc1cc(Nc2cccnc2OC(C)C)nc2c(C(N)=O)cnn12", "100 to 500 nM"],
  ["CNc1cc(Nc2cccn(-c3ncc(OC)cc3F)c2=O)nc2c(C(=O)N[C@H]3C[C@H]3F)cnn12", "< 100 nM"],
  ["CNc1cc(-c2cn(C(C)C)c3ncc(C)cc23)nc2c(C(N)=O)cnn12", "< 100 nM"],
  ["CNc1cc(Nc2cccn(-c3ccc(F)cc3)c2=O)nc2c(C(=O)NC3CCC3)cnn12", "< 100 nM"],
  ["CNc1cc(Nc2cc(C)cnc2OCCOC)nc2c(C(=O)NC3CCC3)cnn12", "100 to 500 nM"]
]}

Identify measured IC50 corresponding to CNc1cc(Nc2cccc(N3CCCC3=O)n2)nc2c(C(=O)NC3CCC3)cnn12
< 100 nM

Identify measured IC50 corresponding to CNc1cc(Nc2cc(C)cn(-c3cnn(C)c3)c2=O)nc2c(C(N)=O)cnn12
100 to 500 nM

Identify measured IC50 corresponding to CNc1cc(Nc2cccc(N3CCCC3=O)n2)nc2c(C(N)=O)cnn12
< 100 nM

Identify measured IC50 corresponding to CNc1cc(Nc2cccn(C[C@@H]3CCCCO3)c2=O)nc2c(C(=O)NC3CC3)cnn12
< 100 nM

Identify measured IC50 corresponding to CNc1cc(Nc2cccn(-c3cnn(CC4CCOCC4)c3)c2=O)nc2c(C(=O)NC3CC3)cnn12
100 to 500 nM
